# System: PERK (Homo sapiens)
# Construct: GST-PERK (536-1116) cytoplasmic domain was purchased from Invitrogen; purchased Invitrogen PV5106
# Sequence (Q9NZJ5 536-1116): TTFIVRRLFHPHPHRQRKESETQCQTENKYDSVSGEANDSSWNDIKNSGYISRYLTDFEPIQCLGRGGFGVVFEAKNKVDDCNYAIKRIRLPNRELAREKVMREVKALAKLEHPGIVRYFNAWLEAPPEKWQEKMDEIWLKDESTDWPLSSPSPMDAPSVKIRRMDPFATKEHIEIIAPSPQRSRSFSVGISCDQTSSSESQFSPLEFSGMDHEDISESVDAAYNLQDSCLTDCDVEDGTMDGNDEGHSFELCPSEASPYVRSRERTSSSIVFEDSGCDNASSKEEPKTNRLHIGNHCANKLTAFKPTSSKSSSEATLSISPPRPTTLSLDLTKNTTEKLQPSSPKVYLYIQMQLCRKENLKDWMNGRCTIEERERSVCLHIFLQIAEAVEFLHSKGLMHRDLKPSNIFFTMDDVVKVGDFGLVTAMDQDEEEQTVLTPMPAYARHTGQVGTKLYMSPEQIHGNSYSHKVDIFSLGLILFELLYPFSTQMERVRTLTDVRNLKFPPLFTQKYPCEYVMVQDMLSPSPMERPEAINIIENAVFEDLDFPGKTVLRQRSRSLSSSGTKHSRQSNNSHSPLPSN
# Test summary: PKR-like Endoplasmic Reticulum Kinase (PERK) Assay (HTRF Format)
# Type: biochemical
# Condition summary: average, in at least one set of experimental runs; read-out: average pIC50 value against PERK (converted)
Quantity measured: IC50

Prompt: I have this compound here, Cn1cc(-c2ccc3c(c2)CCN3C(=O)Cc2cc(F)cc(Cl)c2)c2c(N)ncnc21 , and I need its recorded IC50.
Response: ≤ 0.316 nM

Prompt: Same read-out for Nc1ncc(Cl)c2occ(-c3ccc4c(c3)CCN4C(=O)Cc3cc(F)ccc3F)c12 ?
Response: ≤ 1 nM

Prompt: Can you check Cc1cccc(CC(=O)N2CCc3cc(-c4cn(C)c5ncnc(N)c45)ccc32)n1 next?
Response: ≤ 2.51 nM

Prompt: Same again, this time with Nc1ncnc2occ(-c3ccc4c(c3)CCN4C(=O)Cc3cc(F)cc(C(F)(F)F)c3)c12
Response: ≤ 2.51 nM
